src = patent US11999727B2

assaySystem: PRMT5 (Homo sapiens)
Construct: purchased Viva (custom protein)
Sequence (O14744 whole entry): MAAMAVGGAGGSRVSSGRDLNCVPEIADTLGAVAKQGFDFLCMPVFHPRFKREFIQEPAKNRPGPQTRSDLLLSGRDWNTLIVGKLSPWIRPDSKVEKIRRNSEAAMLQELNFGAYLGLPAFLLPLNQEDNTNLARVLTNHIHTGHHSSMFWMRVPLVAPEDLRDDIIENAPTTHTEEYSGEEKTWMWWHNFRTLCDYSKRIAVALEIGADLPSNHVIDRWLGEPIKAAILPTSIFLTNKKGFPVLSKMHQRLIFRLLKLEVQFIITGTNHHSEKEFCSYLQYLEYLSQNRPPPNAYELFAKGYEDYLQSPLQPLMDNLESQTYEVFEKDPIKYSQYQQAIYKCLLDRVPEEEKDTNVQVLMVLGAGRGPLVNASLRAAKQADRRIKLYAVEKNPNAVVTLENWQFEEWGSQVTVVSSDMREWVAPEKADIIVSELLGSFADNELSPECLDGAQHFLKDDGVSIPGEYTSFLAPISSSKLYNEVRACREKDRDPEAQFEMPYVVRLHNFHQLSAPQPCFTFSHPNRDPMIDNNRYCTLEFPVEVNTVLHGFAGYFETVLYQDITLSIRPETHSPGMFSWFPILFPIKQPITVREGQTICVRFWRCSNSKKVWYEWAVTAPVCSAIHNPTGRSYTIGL
Sequence (Q9BQA1 whole entry partner): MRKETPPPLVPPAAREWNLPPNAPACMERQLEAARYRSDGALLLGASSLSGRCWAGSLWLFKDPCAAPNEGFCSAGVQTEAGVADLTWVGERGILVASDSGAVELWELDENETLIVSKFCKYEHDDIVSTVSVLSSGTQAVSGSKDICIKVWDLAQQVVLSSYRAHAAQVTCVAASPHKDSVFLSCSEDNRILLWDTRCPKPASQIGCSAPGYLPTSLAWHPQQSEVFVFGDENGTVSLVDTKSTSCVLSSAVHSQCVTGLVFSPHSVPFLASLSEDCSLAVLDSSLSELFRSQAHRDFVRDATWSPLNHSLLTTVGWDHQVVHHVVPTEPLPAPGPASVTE
experiment: PRMT5 biochemical IC50 assay with SAM as cofactor
conditionsUsed: PRMT5, SAM as cofactor; read-out: SAM IC50

| molecule | IC50 |
| --- | --- |
| CCc1cc(NC(=O)C(=O)N2C[C@@H](C)CC[C@@H]2c2ccc(N3CCN(C(C)C)CC3)cc2)cnc1N (single isomer, unassigned) | 50 to 500 nM |
| C[C@@H]1CN(C(=O)C(=O)Nc2cncc(C(N)=O)c2)C[C@H]2CCCC[C@H]21 (racemic) | 50 to 500 nM |
| Cc1cc(NC(=O)C(=O)N2C[C@H](C)CC[C@H]2c2ccc(C(F)F)nc2)cnc1N (single isomer, unassigned) | > 500 nM |
